- system.tested: Integrin alpha-V/beta-5 (Homo sapiens, UniProt P06756+P18084)
- Sequence (P06756 31-889 limits assumed): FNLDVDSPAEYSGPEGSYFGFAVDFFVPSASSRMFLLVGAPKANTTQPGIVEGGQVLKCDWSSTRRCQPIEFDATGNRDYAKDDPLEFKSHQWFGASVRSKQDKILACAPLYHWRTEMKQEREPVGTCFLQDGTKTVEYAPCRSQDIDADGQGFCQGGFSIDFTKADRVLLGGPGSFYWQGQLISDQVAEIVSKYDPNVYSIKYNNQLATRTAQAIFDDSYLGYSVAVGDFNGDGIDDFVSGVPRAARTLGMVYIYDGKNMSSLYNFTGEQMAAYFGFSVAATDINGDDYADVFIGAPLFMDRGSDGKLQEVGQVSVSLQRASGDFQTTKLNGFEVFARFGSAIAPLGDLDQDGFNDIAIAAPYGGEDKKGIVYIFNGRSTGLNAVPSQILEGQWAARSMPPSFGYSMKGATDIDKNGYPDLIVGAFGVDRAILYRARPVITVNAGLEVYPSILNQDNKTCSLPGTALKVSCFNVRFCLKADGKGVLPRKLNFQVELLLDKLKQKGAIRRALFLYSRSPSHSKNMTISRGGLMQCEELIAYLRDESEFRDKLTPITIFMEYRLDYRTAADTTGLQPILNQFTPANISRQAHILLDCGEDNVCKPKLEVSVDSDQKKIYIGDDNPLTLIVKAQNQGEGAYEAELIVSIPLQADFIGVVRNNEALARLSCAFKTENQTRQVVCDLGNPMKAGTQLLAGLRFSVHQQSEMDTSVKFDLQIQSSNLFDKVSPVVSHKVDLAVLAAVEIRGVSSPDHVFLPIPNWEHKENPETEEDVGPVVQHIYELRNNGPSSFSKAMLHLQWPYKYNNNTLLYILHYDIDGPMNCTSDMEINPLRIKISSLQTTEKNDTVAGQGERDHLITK
- Sequence (P06756 891-1048 limits assumed): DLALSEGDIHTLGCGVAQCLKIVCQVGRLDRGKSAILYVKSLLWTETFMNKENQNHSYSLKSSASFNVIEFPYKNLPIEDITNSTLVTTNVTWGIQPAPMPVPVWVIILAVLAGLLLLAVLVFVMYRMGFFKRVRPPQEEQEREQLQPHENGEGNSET
- Sequence (P18084 24-799 limits assumed): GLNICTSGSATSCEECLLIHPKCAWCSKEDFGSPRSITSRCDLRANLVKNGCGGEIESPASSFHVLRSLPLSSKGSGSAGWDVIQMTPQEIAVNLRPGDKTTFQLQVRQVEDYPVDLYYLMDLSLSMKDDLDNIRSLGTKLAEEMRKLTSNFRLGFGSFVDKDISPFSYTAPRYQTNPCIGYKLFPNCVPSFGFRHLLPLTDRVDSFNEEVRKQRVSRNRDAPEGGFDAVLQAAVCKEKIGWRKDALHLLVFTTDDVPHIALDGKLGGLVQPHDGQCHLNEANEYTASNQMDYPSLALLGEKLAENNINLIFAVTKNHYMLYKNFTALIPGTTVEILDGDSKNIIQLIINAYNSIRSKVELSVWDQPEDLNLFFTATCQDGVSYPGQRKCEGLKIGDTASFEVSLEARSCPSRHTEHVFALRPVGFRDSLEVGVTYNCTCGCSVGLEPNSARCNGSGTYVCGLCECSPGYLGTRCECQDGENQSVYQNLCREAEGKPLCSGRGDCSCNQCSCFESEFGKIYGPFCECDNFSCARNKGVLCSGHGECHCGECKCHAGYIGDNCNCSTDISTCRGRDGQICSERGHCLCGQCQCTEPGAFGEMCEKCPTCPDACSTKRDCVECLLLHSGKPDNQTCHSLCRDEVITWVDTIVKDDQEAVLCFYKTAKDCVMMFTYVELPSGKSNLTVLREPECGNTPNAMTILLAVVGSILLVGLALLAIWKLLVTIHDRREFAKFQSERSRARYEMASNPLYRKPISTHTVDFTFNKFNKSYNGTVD
- experimental.protocol: Inhibition of integrin alphaVbeta5 receptor-mediated adhesion of human A498 cells to vitronectin after 1 hr by toluidine blue staining
- Type: cell-based
measurement.label: log10(IC50) (log10 of the value in µM)
The common logarithm of IC50 in µM is what is listed.

Example cases with answers are listed next.
[
  {
    "smiles.structure": "N=C(N)NCCC[C@@H]1NC(=O)[C@H](c2ccc(CNC(=O)COCCOCCOCC(=O)O)cc2)NC(=O)[C@@H](Cc2ccccc2)NC(=O)[C@H](CC(=O)O)NC(=O)CNC1=O",
    "log10(IC50)": 1.03
  },
  {
    "smiles.structure": "N=C(N)NCCC[C@@H]1NC(=O)[C@H](c2ccc(CNC(=O)CCC(=O)O)cc2)NC(=O)[C@@H](Cc2ccccc2)NC(=O)[C@H](CC(=O)O)NC(=O)CNC1=O",
    "log10(IC50)": 1.53
  },
  {
    "smiles.structure": "CC[C@@]1(O)C(=O)OCc2c1cc1n(c2=O)Cc2c-1nc1ccccc1c2/C=N/OCCNC(=O)CCC(=O)NCc1ccc(C[C@@H]2NC(=O)[C@@H](Cc3ccccc3)NC(=O)[C@H](CC(=O)O)NC(=O)CNC(=O)[C@H](CCCNC(=N)N)NC2=O)cc1",
    "log10(IC50)": 0.73
  },
  {
    "smiles.structure": "CC[C@@]1(O)C(=O)OCc2c1cc1n(c2=O)Cc2c-1nc1ccccc1c2/C=N\\OCCNC(=O)CCC[C@@H]1NC(=O)[C@@H](Cc2ccccc2)NC(=O)[C@H](CC(=O)O)NC(=O)CNC(=O)[C@H](CCCNC(=N)N)NC1=O",
    "log10(IC50)": 0.57
  }
]

// moving on: another record for log10(IC50)
Please give the documented log10(IC50) of CC[C@@]1(O)C(=O)OCc2c1cc1n(c2=O)Cc2c-1nc1ccccc1c2/C=N/OCCNC(=O)COCCOCCOCC(=O)NCc1ccc(C[C@@H]2NC(=O)[C@@H](Cc3ccccc3)NC(=O)[C@H](CC(=O)O)NC(=O)CNC(=O)[C@H](CCCN=C(N)N)NC2=O)cc1
0.49

---

- system.tested: Integrin alpha-V/beta-3 (Homo sapiens, UniProt P05106+P06756)
- Sequence (P05106 27-788 limits assumed): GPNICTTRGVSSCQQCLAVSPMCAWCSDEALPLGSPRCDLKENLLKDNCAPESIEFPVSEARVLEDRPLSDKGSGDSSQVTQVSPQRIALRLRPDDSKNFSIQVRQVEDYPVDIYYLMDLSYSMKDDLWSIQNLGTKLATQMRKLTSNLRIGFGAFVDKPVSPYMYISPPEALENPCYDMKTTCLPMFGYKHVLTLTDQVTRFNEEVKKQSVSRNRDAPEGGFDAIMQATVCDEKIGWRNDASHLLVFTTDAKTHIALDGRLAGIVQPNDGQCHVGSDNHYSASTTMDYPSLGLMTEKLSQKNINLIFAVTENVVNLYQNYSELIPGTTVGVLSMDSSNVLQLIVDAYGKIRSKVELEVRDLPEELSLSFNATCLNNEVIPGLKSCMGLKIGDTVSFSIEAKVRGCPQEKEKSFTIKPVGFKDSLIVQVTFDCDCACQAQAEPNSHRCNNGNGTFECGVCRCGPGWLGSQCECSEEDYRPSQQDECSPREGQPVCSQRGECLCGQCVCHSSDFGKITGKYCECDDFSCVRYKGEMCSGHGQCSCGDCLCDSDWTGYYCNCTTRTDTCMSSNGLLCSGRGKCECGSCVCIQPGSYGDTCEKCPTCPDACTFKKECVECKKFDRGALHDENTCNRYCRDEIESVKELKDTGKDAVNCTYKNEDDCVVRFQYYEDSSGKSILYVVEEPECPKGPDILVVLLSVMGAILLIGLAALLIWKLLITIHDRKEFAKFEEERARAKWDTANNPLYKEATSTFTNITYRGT
- Sequence (P06756 31-889 limits assumed): as the sequence (P06756 31-889 limits assumed) above
- Sequence (P06756 891-1048 limits assumed): as the sequence (P06756 891-1048 limits assumed) above
- experimental.protocol: Inhibition of integrin alphaVbeta3 receptor-mediated adhesion of human A498 cells to vitronectin after 1 hr by toluidine blue staining
- Assay type: cell-based
So I've got a bunch of compounds here, and I need their IC50 values.
Form field: result (number plus unit)

[
  {
    "smiles.structure": "CC[C@@]1(O)C(=O)OCc2c1cc1n(c2=O)Cc2c-1nc1ccccc1c2/C=N\\OCCNC(=O)CCC[C@@H]1NC(=O)[C@@H](Cc2ccccc2)NC(=O)[C@H](CC(=O)O)NC(=O)CNC(=O)[C@H](CCCNC(=N)N)NC1=O",
    "IC50": "3.7 µM"
  },
  {
    "smiles.structure": "CC[C@@]1(O)C(=O)OCc2c1cc1n(c2=O)Cc2c-1nc1ccccc1c2/C=N/OCCNC(=O)COCCOCCOCC(=O)NCc1ccc(C[C@@H]2NC(=O)[C@@H](Cc3ccccc3)NC(=O)[C@H](CC(=O)O)NC(=O)CNC(=O)[C@H](CCCN=C(N)N)NC2=O)cc1",
    "IC50": "3.1 µM"
  },
  {
    "smiles.structure": "N=C(N)NCCC[C@@H]1NC(=O)[C@H](c2ccc(CNC(=O)CCC(=O)O)cc2)NC(=O)[C@@H](Cc2ccccc2)NC(=O)[C@H](CC(=O)O)NC(=O)CNC1=O",
    "IC50": "34 µM"
  },
  {
    "smiles.structure": "CC[C@@]1(O)C(=O)OCc2c1cc1n(c2=O)Cc2c-1nc1ccccc1c2/C=N/OCCNC(=O)CCC(=O)NCc1ccc(C[C@@H]2NC(=O)[C@@H](Cc3ccccc3)NC(=O)[C@H](CC(=O)O)NC(=O)CNC(=O)[C@H](CCCNC(=N)N)NC2=O)cc1",
    "IC50": "5.4 µM"
  }
]

// moving on: another record for IC50
Please give the documented IC50 of N=C(N)NCCC[C@@H]1NC(=O)[C@H](c2ccc(CNC(=O)COCCOCCOCC(=O)O)cc2)NC(=O)[C@@H](Cc2ccccc2)NC(=O)[C@H](CC(=O)O)NC(=O)CNC1=O
10.7 µM

---

So I've got a bunch of compounds here, and I need their pIC50 values.
- system.tested: Integrin alpha-V/beta-3 (Homo sapiens, UniProt P05106+P06756)
- experimental.protocol: Displacement of [125I]echistatin from integrin alphaVbeta3 receptor after 3 hrs by gamma counting
- Type: protein-complex assay
- assay.conditions: read-out: IC50
One number for each entry, as −log10 of the molar value.

[
  {
    "smiles.structure": "CC[C@@]1(O)C(=O)OCc2c1cc1n(c2=O)Cc2c-1nc1ccccc1c2/C=N/OCCNC(=O)COCCOCCOCC(=O)NCc1ccc(C[C@@H]2NC(=O)[C@@H](Cc3ccccc3)NC(=O)[C@H](CC(=O)O)NC(=O)CNC(=O)[C@H](CCCN=C(N)N)NC2=O)cc1",
    "number": 7.90
  }
]

Below are some compounds; for each one, tell me its pIC50.
1. CC[C@@]1(O)C(=O)OCc2c1cc1n(c2=O)Cc2c-1nc1ccccc1c2/C=N/NC(=O)COCCOCCOCC(=O)NCc1ccc(C[C@@H]2NC(=O)[C@@H](Cc3ccccc3)NC(=O)[C@H](CC(=O)O)NC(=O)CNC(=O)[C@H](CCCNC(=N)N)NC2=O)cc1
2. CC[C@@]1(O)C(=O)OCc2c1cc1n(c2=O)Cc2c-1nc1ccccc1c2CC/C=N/NC(=O)COCCOCCOCC(=O)NCc1ccc(C[C@@H]2NC(=O)[C@@H](Cc3ccccc3)NC(=O)[C@H](CC(=O)O)NC(=O)CNC(=O)[C@H](CCCNC(=N)N)NC2=O)cc1

1: 7.93; 2: 8.22

Below are some compounds; for each one, tell me its pIC50.
1. N=C(N)NCCC[C@@H]1NC(=O)[C@H](c2ccc(CNC(=O)COCCOCCOCC(=O)NN)cc2)NC(=O)[C@@H](Cc2ccccc2)NC(=O)[C@H](CC(=O)O)NC(=O)CNC1=O
2. N=C(N)NCCC[C@@H]1NC(=O)[C@H](c2ccc(CNC(=O)COCCOCCOCC(=O)O)cc2)NC(=O)[C@@H](Cc2ccccc2)NC(=O)[C@H](CC(=O)O)NC(=O)CNC1=O
3. CC[C@@]1(O)C(=O)OCc2c1cc1n(c2=O)Cc2c-1nc1ccccc1c2/C=N/OCCNC(=O)CCC(=O)NCc1ccc(C[C@@H]2NC(=O)[C@@H](Cc3ccccc3)NC(=O)[C@H](CC(=O)O)NC(=O)CNC(=O)[C@H](CCCNC(=N)N)NC2=O)cc1

[8.42, 8.40, 8.14]

Please give the documented pIC50 of N=C(N)NCCC[C@@H]1NC(=O)[C@H](c2ccc(CNC(=O)CCC(=O)O)cc2)NC(=O)[C@@H](Cc2ccccc2)NC(=O)[C@H](CC(=O)O)NC(=O)CNC1=O
7.42

---

- experimental.protocol: Chemical stability assessed as half life at 100 uM at pH 7.4 by HPLC analysis
- Format: physicochemical
- assay.conditions: buffer
So I've got a bunch of compounds here, and I need their half-life at 100 µM values.
Give bare numbers, in h.

[
  {
    "smiles.structure": "CC[C@@]1(O)C(=O)OCc2c1cc1n(c2=O)Cc2c-1nc1ccccc1c2CC/C=N/NC(=O)COCCOCCOCC(=O)NCc1ccc(C[C@@H]2NC(=O)[C@@H](Cc3ccccc3)NC(=O)[C@H](CC(=O)O)NC(=O)CNC(=O)[C@H](CCCNC(=N)N)NC2=O)cc1",
    "measurement.label": "half-life at 100 µM",
    "number": 5.8
  }
]

// moving on: another record for half-life at 100 µM
Please give the documented half-life at 100 µM of CC[C@@]1(O)C(=O)OCc2c1cc1n(c2=O)Cc2c-1nc1ccccc1c2/C=N/NC(=O)COCCOCCOCC(=O)NCc1ccc(C[C@@H]2NC(=O)[C@@H](Cc3ccccc3)NC(=O)[C@H](CC(=O)O)NC(=O)CNC(=O)[C@H](CCCNC(=N)N)NC2=O)cc1
6

All figures here come from ChEMBL document CHEMBL1157688.
